- testedOn: FLT3-D835Y mutant kinase (Homo sapiens, UniProt P36888, D835Y)
- Construct: purchased SignalChem
- assayDetails: FLT3-D835Y mutant kinase assay (AlphaScreen)
- Format: biochemical
- setupConditions: mean; read-out: Biochemical activity (Mean IC50, nM) FLT3-D835Y
parameter: IC50

Query: Given COc1ccc(-c2n[nH]c3c2Cc2sc(-c4ccc(N)nc4)cc2-3)cc1 [Example H, reference compound] , state its recorded IC50.
Result: 15 nM

----------
- Test system: MV4-11 human acute myeloid leukemia cell with FLT3-ITD mutation
- assayDetails: MV4-11 cell proliferation assay (CellTiter 96)
- Format: cell-based
- setupConditions: Homo sapiens, MV4-11, 72 h, MV4-11 cells, 72 hours treatment, CellTiter96; read-out: anti-proliferation activity MV4-11 (FLT3-ITD), IC50 ranking
parameter: IC50

Query: Give the measured IC50 of "Cn1cc(-c2cc3c(s2)Cc2c(-c4ccc5cnn(C)c5c4)n[nH]c2-3)cc1C(=O)N1CCOCC1" .
Result: < 0.03 µM

Query: Same read-out for "Cn1ncc2ccc(-c3n[nH]c4c3Cc3sc(N5CCOCC5=O)cc3-4)cc21" ?
Result: < 0.03 µM

Query: "Cn1ncc2ccc(-c3n[nH]c4c3Cc3sc(-c5ccc(C(=O)N6CCOCC6)cc5)cc3-4)cc21" ?
Result: < 0.03 µM

Query: How about "Cn1ncc2ccc(-c3n[nH]c4c3Cc3sc(C5CCN(C(=O)OC(C)(C)C)CC5)cc3-4)cc21" ?
Result: 0.03 to 0.1 µM

Query: Record: "C[C@@H]1COCCN1Cc1ccc(-c2cc3c(s2)Cc2c(-c4ccc5cnn(C)c5c4)n[nH]c2-3)cc1"
Result: < 0.03 µM

Query: And the next one, "Cn1ncc2ccc(-c3n[nH]c4c3Cc3sc(-c5ccc(CN6CCCC6)cc5)cc3-4)cc21" ?
Result: < 0.03 µM

Query: Queued: "Cn1ncc2ccc(-c3n[nH]c4c3Cc3sc(-c5ccc(CN6CC7(COC7)C6)cc5)cc3-4)cc21"
Result: 0.03 to 0.1 µM

----------
Record form. Attribute: pIC50. Fill in for each entry.
- testedOn: FLT3 kinase (Homo sapiens, UniProt P36888)
- Construct: purchased SignalChem
- assayDetails: FLT3 kinase assay (AlphaScreen)
- Format: biochemical
- setupConditions: read-out: Ranking of IC50 values, FLT3
pIC50: −log10 of the molar value.

Query: Quick one: pIC50 for "Brc1n[nH]c2cc(-c3n[nH]c4c3Cc3sc(-c5ccc(CN6CCOCC6)cc5)cc3-4)ccc12" ?
Result: 8.00 to 9.00

Query: // same read-out, input: "Cn1ncc2ccc(-c3n[nH]c4c3Cc3sc(-c5ccc(CCN6CCOCC6=O)cc5)cc3-4)cc21"
Result: > 9.00

Query: Also need "Cn1ncc2ccc(-c3n[nH]c4c3Cc3sc(C5CCN(C(=O)OC(C)(C)C)CC5)cc3-4)cc21" , thanks.
Result: 8.00 to 9.00

Query: Let us now turn to "Cn1ncc2ccc(-c3n[nH]c4c3Cc3sc(-c5ccc(C(=O)N6CCOCC6)cc5)cc3-4)cc21"
Result: > 9.00

Query: Let us now turn to "Cn1ncc2ccc(-c3n[nH]c4c3Cc3sc(-c5ccc(CN6CCCCC6)cc5)cc3-4)cc21"
Result: > 9.00

Query: Moving on to "C[C@@H]1CN(Cc2ccc(-c3cc4c(s3)Cc3c(-c5ccc6cnn(C)c6c5)n[nH]c3-4)cn2)C[C@H](C)O1"
Result: > 9.00

Query: And for "Cn1ncc2ccc(-c3n[nH]c4c3Cc3sc(-c5ccc(CN6CCOCC6)s5)cc3-4)cc21" ?
Result: > 9.00

Query: What do you get for "Cn1ncc2ccc(-c3n[nH]c4c3Cc3sc(-c5cccc(OCCN6CCOCC6)c5)cc3-4)cc21" ?
Result: 8.00 to 9.00

Query: Same thing, different compound: "Cn1ncc2ccc(-c3n[nH]c4c3Cc3sc(-c5cncc(C(=O)N6CCOCC6)c5)cc3-4)cc21"
Result: > 9.00

Query: Repeat for the following compound: "CN1CCN(c2ccc(-c3cc4c(s3)Cc3c(-c5ccc6cnn(C)c6c5)n[nH]c3-4)cn2)CC1"
Result: > 9.00

Query: Thanks! And "Cn1ncc2ccc(-c3n[nH]c4c3Cc3sc(-c5ccc(CN6CCC6)cc5)cc3-4)cc21" ?
Result: > 9.00

Query: "Cn1ncc2ccc(-c3n[nH]c4c3Cc3sc(N5CCOCC5=O)cc3-4)cc21" , same question.
Result: > 9.00

Query: How about "CN(C)S(=O)(=O)c1ccc(-c2cc3c(s2)Cc2c(-c4ccc5cnn(C)c5c4)n[nH]c2-3)cc1" ?
Result: > 9.00

Query: Try this compound next: "Cn1ncc2ccc(-c3n[nH]c4c3Cc3sc(-c5ccnc(Cl)c5)cc3-4)cc21"
Result: 8.00 to 9.00

Query: Continue with "Cn1cc(-c2cc3c(s2)Cc2c(-c4ccc5cnn(C)c5c4)n[nH]c2-3)cc1C(=O)N1CCOCC1"
Result: > 9.00
